Task for the reader: assign each of the following compounds its reported EC50.
Tested on: Trypanosoma cruzi (Tulahuen C2C4 strain)
assayName: American trypanosome protozoa growth inhibition screening test
Assay type: cell-based
protocolConditions: Tulahuen C2C4 strain in rat L6 cells, 96 hours, CPRG/Nonidet; read-out: 50% growth inhibition concentration Trypanosoma cruzi
// return numeric value only (unit: µM, not printed)

Please report the recorded EC50 for CCn1c(=Cc2sc3c4ccccc4ccc3[n+]2CC)sc(=CC=C2SCCN2C)c1=O [A-9] .
4.1

Could you do the same for CCn1c(=Cc2oc3ccccc3[n+]2CC)sc(=CC=C2N(C)c3ccccc3C2(C)C)c1=O [A-8] , please?
0.99

Could you do the same for CCn1c(=Cc2cc[n+](CC)c3ccccc23)sc(=CC=C2C=Cc3ccccc3N2C)c1=O [A-14] , please?
1.2

---

Test system: Trypanosoma brucei rhodensiense (STIB 900 strain)
assayName: African trypanosome protozoa growth inhibition screening test
Type: cell-based
protocolConditions: Trypanosoma brucei, STIB900; STIB 900 strain, blood stream form, 72 hours, Alamar Blue; read-out: 50% growth inhibiting concentration Trypanosoma brucei rhod.
Protocol: In the present example, protozoa of Trypanosoma brucei rhodensiense (STIB 900 strain), a trypamastigote living in blood stream, was used. […] The compounds of the present invention to be used in the present test and the positive target drug (melarsoprol) were dissolved in DMSO to make a test solution of a predetermined concentration. […] Next, the culture plate was placed on a fluorescent micro-plate reader (Spectramax Gemeni XS; US Molecular Device), radiated at an excited wavelength of 536 nm. […]
observedProperty: EC50 (nM)
// return numeric value only (unit: nM, not printed)

Please report the recorded EC50 for CCN1CCS/C1=C\C=c1/s/c(=C\c2sc3c4ccccc4ccc3[n+]2CCO)n(CC)c1=O .
93

Could you do the same for CCC[n+]1c(/C=c2\s/c(=C\C=C3/SCCN3CC)c(=O)n2CC)sc2c3ccccc3ccc21 , please?
30

Could you do the same for CCn1c(=O)/c(=C/C=C2\Sc3ccccc3N2C)s/c1=C\c1cccc[n+]1CCCCC(=O)O , please?
900

Could you do the same for CCn1c(=O)/c(=C/C=C2\Sc3ccccc3N2C)s/c1=C\c1cccc[n+]1CCOCCOCCOC , please?
130

Could you do the same for CCN1C(C)=CS/C1=C\C=c1/s/c(=C\c2sc3ccccc3[n+]2CC)n(CC)c1=O , please?
89

Could you do the same for CCN1/C(=C/C=c2\s/c(=C\c3sc4c5ccccc5ccc4[n+]3CC)n(CC)c2=O)Sc2ccc3ccccc3c21 , please?
16

Could you do the same for CCN1/C(=C/C=c2\s/c(=C\C3=[N+](CC)CCS3)n(CC)c2=O)C=Cc2ccccc21 , please?
200
